Attribution: patent US20100112089A1

experiment: Pharmacokinetics of CBP501, single agent study; format: in vivo, human; conditions: human, in vivo, 0.9 mg/m2, single agent, 0.9 mg/m^2, Day 15, mean, N 3
Where a name gives a salt, the structure may show the parent alone. Square brackets hold non-standard residues; d marks the D form. Peptide text beside a SMILES is read from it. dPhe(F5) = N[C@H](Cc1c(F)c(F)c(F)c(F)c1F)C(=O)O; dBpa = N[C@H](Cc1ccc(C(=O)c2ccccc2)cc1)C(=O)O; dCha = N[C@H](CC1CCCCC1)C(=O)O
metric: Cmax (µg/mL)

INSERT INTO results (compound, metric, obs_value) VALUES
  ('N=C(N)NCCC[C@@H](NC(=O)[C@@H](CCCNC(=N)N)NC(=O)[C@@H](CCC(N)=O)NC(=O)[C@@H](CCCNC(=N)N)NC(=O)[C@@H](CCCNC(=N)N)NC(=O)[C@@H](CCCNC(=N)N)NC(=O)[C@@H](CC1CCCCC1)NC(=O)[C@@H](Cc1c(F)c(F)c(F)c(F)c1F)NC(=O)[C@@H](CO)NC(=O)[C@@H](Cc1c[nH]c2ccccc12)NC(=O)[C@@H](CO)NC(=O)[C@H](N)Cc1ccc(C(=O)c2ccccc2)cc1)C(=O)O [CBP501, acetate salt] (H-[dBpa][dS][dW][dS][dPhe(F5)][dCha][dR][dR][dR][dQ][dR][dR]-OH)', 'Cmax', 0.138);

----------
test: Pharmacokinetics of CBP501, single agent study; type: in vivo, human; settings: human, in vivo, 7.2 mg/m2, single agent, 7.2 mg/m^2, Day 1, mean, N 3
Where a name gives a salt, the structure may show the parent alone. Square brackets hold non-standard residues; d marks the D form. Peptide text beside a SMILES is read from it. dPhe(F5) = N[C@H](Cc1c(F)c(F)c(F)c(F)c1F)C(=O)O; dBpa = N[C@H](Cc1ccc(C(=O)c2ccccc2)cc1)C(=O)O; dCha = N[C@H](CC1CCCCC1)C(=O)O
metric: AUC(0-inf) (ng·h/mL)

INSERT INTO measurements (compound, obs_value) VALUES
  ('N=C(N)NCCC[C@@H](NC(=O)[C@@H](CCCNC(=N)N)NC(=O)[C@@H](CCC(N)=O)NC(=O)[C@@H](CCCNC(=N)N)NC(=O)[C@@H](CCCNC(=N)N)NC(=O)[C@@H](CCCNC(=N)N)NC(=O)[C@@H](CC1CCCCC1)NC(=O)[C@@H](Cc1c(F)c(F)c(F)c(F)c1F)NC(=O)[C@@H](CO)NC(=O)[C@@H](Cc1c[nH]c2ccccc12)NC(=O)[C@@H](CO)NC(=O)[C@H](N)Cc1ccc(C(=O)c2ccccc2)cc1)C(=O)O [CBP501, acetate salt] (H-[dBpa][dS][dW][dS][dPhe(F5)][dCha][dR][dR][dR][dQ][dR][dR]-OH)', 4390);

----------
assay: Pharmacokinetics of CBP501, single agent study; assay type: in vivo, human; settings: human, in vivo, 16.93 mg/m2, single agent, 16.93 mg/m^2, Day 1, mean, N 2
Where a name gives a salt, the structure may show the parent alone. Square brackets hold non-standard residues; d marks the D form. Peptide text beside a SMILES is read from it. dPhe(F5) = N[C@H](Cc1c(F)c(F)c(F)c(F)c1F)C(=O)O; dBpa = N[C@H](Cc1ccc(C(=O)c2ccccc2)cc1)C(=O)O; dCha = N[C@H](CC1CCCCC1)C(=O)O
metric: clearance (mL/min/kg)

INSERT INTO measurements (molecule, metric, measurement_units, obs_value) VALUES
  ('N=C(N)NCCC[C@@H](NC(=O)[C@@H](CCCNC(=N)N)NC(=O)[C@@H](CCC(N)=O)NC(=O)[C@@H](CCCNC(=N)N)NC(=O)[C@@H](CCCNC(=N)N)NC(=O)[C@@H](CCCNC(=N)N)NC(=O)[C@@H](CC1CCCCC1)NC(=O)[C@@H](Cc1c(F)c(F)c(F)c(F)c1F)NC(=O)[C@@H](CO)NC(=O)[C@@H](Cc1c[nH]c2ccccc12)NC(=O)[C@@H](CO)NC(=O)[C@H](N)Cc1ccc(C(=O)c2ccccc2)cc1)C(=O)O [CBP501, acetate salt] (H-[dBpa][dS][dW][dS][dPhe(F5)][dCha][dR][dR][dR][dQ][dR][dR]-OH)', 'clearance', 'mL/min/kg', 0.617);

----------
assay: Pharmacokinetics of CBP501, single agent study; assay type: in vivo, human; settings: human, in vivo, 22.5 mg/m2, single agent, 22.5 mg/m^2, Day 1, mean, N 7
Where a name gives a salt, the structure may show the parent alone. Square brackets hold non-standard residues; d marks the D form. Peptide text beside a SMILES is read from it. dPhe(F5) = N[C@H](Cc1c(F)c(F)c(F)c(F)c1F)C(=O)O; dBpa = N[C@H](Cc1ccc(C(=O)c2ccccc2)cc1)C(=O)O; dCha = N[C@H](CC1CCCCC1)C(=O)O
metric: Cmax

INSERT INTO assay_data (compound, obs_value) VALUES
  ('N=C(N)NCCC[C@@H](NC(=O)[C@@H](CCCNC(=N)N)NC(=O)[C@@H](CCC(N)=O)NC(=O)[C@@H](CCCNC(=N)N)NC(=O)[C@@H](CCCNC(=N)N)NC(=O)[C@@H](CCCNC(=N)N)NC(=O)[C@@H](CC1CCCCC1)NC(=O)[C@@H](Cc1c(F)c(F)c(F)c(F)c1F)NC(=O)[C@@H](CO)NC(=O)[C@@H](Cc1c[nH]c2ccccc12)NC(=O)[C@@H](CO)NC(=O)[C@H](N)Cc1ccc(C(=O)c2ccccc2)cc1)C(=O)O [CBP501, acetate salt] (H-[dBpa][dS][dW][dS][dPhe(F5)][dCha][dR][dR][dR][dQ][dR][dR]-OH)', '6080 ng/mL');

----------
assay: Pharmacokinetics of CBP501, single agent study; assay type: in vivo, human; details: human, in vivo, 0.9 mg/m2, single agent, 0.9 mg/m^2, Day 15, mean, N 3
Counter-ions that a name gives are not always drawn. Square brackets hold non-standard residues; d marks the D form. Peptide text beside a SMILES is read from it. dPhe(F5) = N[C@H](Cc1c(F)c(F)c(F)c(F)c1F)C(=O)O; dBpa = N[C@H](Cc1ccc(C(=O)c2ccccc2)cc1)C(=O)O; dCha = N[C@H](CC1CCCCC1)C(=O)O
metric: half-life (min)

INSERT INTO measurements (molecule, metric, obs_value) VALUES
  ('N=C(N)NCCC[C@@H](NC(=O)[C@@H](CCCNC(=N)N)NC(=O)[C@@H](CCC(N)=O)NC(=O)[C@@H](CCCNC(=N)N)NC(=O)[C@@H](CCCNC(=N)N)NC(=O)[C@@H](CCCNC(=N)N)NC(=O)[C@@H](CC1CCCCC1)NC(=O)[C@@H](Cc1c(F)c(F)c(F)c(F)c1F)NC(=O)[C@@H](CO)NC(=O)[C@@H](Cc1c[nH]c2ccccc12)NC(=O)[C@@H](CO)NC(=O)[C@H](N)Cc1ccc(C(=O)c2ccccc2)cc1)C(=O)O [CBP501, acetate salt] (H-[dBpa][dS][dW][dS][dPhe(F5)][dCha][dR][dR][dR][dQ][dR][dR]-OH)', 'half-life', 36);

----------
test: Pharmacokinetics of CBP501, single agent study; type: in vivo, human; settings: human, in vivo, 7.2 mg/m2, single agent, 7.2 mg/m^2, Day 1, mean, N 3
Structures can show the parent of a compound that is named as a salt. Square brackets hold non-standard residues; d marks the D form. Peptide text beside a SMILES is read from it. dPhe(F5) = N[C@H](Cc1c(F)c(F)c(F)c(F)c1F)C(=O)O; dBpa = N[C@H](Cc1ccc(C(=O)c2ccccc2)cc1)C(=O)O; dCha = N[C@H](CC1CCCCC1)C(=O)O
metric: half-life

INSERT INTO assay_data (compound, obs_value) VALUES
  ('N=C(N)NCCC[C@@H](NC(=O)[C@@H](CCCNC(=N)N)NC(=O)[C@@H](CCC(N)=O)NC(=O)[C@@H](CCCNC(=N)N)NC(=O)[C@@H](CCCNC(=N)N)NC(=O)[C@@H](CCCNC(=N)N)NC(=O)[C@@H](CC1CCCCC1)NC(=O)[C@@H](Cc1c(F)c(F)c(F)c(F)c1F)NC(=O)[C@@H](CO)NC(=O)[C@@H](Cc1c[nH]c2ccccc12)NC(=O)[C@@H](CO)NC(=O)[C@H](N)Cc1ccc(C(=O)c2ccccc2)cc1)C(=O)O [CBP501, acetate salt] (H-[dBpa][dS][dW][dS][dPhe(F5)][dCha][dR][dR][dR][dQ][dR][dR]-OH)', '1.3 h');

----------
assay: Pharmacokinetics of CBP501, single agent study; assay type: in vivo, human; conditions: human, in vivo, 0.9 mg/m2, single agent, 0.9 mg/m^2, Day 1, mean, N 4
Structures can show the parent of a compound that is named as a salt. Square brackets hold non-standard residues; d marks the D form. Peptide text beside a SMILES is read from it. dPhe(F5) = N[C@H](Cc1c(F)c(F)c(F)c(F)c1F)C(=O)O; dBpa = N[C@H](Cc1ccc(C(=O)c2ccccc2)cc1)C(=O)O; dCha = N[C@H](CC1CCCCC1)C(=O)O
metric: AUC(0-inf) (µg·h/mL)

INSERT INTO measurements (compound, metric, obs_value) VALUES
  ('N=C(N)NCCC[C@@H](NC(=O)[C@@H](CCCNC(=N)N)NC(=O)[C@@H](CCC(N)=O)NC(=O)[C@@H](CCCNC(=N)N)NC(=O)[C@@H](CCCNC(=N)N)NC(=O)[C@@H](CCCNC(=N)N)NC(=O)[C@@H](CC1CCCCC1)NC(=O)[C@@H](Cc1c(F)c(F)c(F)c(F)c1F)NC(=O)[C@@H](CO)NC(=O)[C@@H](Cc1c[nH]c2ccccc12)NC(=O)[C@@H](CO)NC(=O)[C@H](N)Cc1ccc(C(=O)c2ccccc2)cc1)C(=O)O [CBP501, acetate salt] (H-[dBpa][dS][dW][dS][dPhe(F5)][dCha][dR][dR][dR][dQ][dR][dR]-OH)', 'AUC(0-inf)', 0.178);
